Origin of values: PubChem BioAssay (NCI)

Tested on: CAKI-1 renal
Experiment: NCI-60 one-dose screen, 48 h
Conditions: 10 µM unless noted
The panel holds about 83,000 compounds, 20% with a hit somewhere; the sample as a whole holds those more often. Activity calls are given as the source filed them. The calls were made as follows: active = growth percent below 10; inactive = the rest.
Please state which outcome applies, choosing from active, inactive

1. Cc1nn(-c2ccccc2)c2ncnc(N/N=C/c3cccc(O)c3)c12 : inactive
2. CS(=O)(=O)c1ccc(-c2nn(-c3ccccc3)cc2/C=N/NC(=O)c2nc(N)n[nH]2)cc1 : inactive
3. Cc1ccc(-c2cc3nc(C(Cl)Cl)nc(-c4ccco4)n3n2)cc1 : active
4. COCCNc1ccc2ncc(C#Cc3cncc(C(=O)Nc4ccc(CN5CCN(C)CC5)c(C(F)(F)F)c4)c3)n2n1 : active
5. O=C1CCCc2nc(Nc3ccc(S(=O)(=O)Nc4ccc([N+](=O)[O-])cc4)cc3)ncc21 : inactive

I'd appreciate the recorded outcome for Cc1ccc(-c2nnc(SCc3ccc(O)c4ncccc34)o2)cc1 from this test. inactive

Which outcome was assigned to Nc1nc(N)c2c(n1)NC(c1ccc(C(F)(F)F)cc1)CC(c1ccc(Nc3nc(NCCO)nc(N4CCOCC4)n3)cc1)=N2 (centres undefined) in this test? inactive

Per the records of this test, what outcome belongs to NS(=O)(=O)c1ccc(-n2cc(CN3CCCCC3)nn2)cc1 ? inactive

For this molecule, state the assay outcome: O=C1[C@H]2Cc3c([nH]c4ccccc34)[C@@H](c3ccc(Cl)cc3)N2C(=O)CN1C1CCN(Cc2ccccc2)CC1 inactive
